Reference for the values: ChEMBL document CHEMBL2046274

target: Quinolone resistance protein NorA (Staphylococcus aureus) (UniProt P0A0J7); assay: Inhibition of norA-mediated EtBr efflux in Staphylococcus aureus SA1199B overexpressing norA and expressing A116E GrlA mutation at 50 uM by fluorometry
measuredMetric: inhibition (%)
Output spec: scalar in %, unitless text.

[[record]]
compound = "CN1c2c(-c3ccc(Cl)cc3)nn(-c3cccc(C(F)(F)F)c3)c2-c2ccccc2S1(=O)=O"
assayresult = 0


Input: If you can, please state the reported inhibition value of "NS(=O)(=O)c1ccc(-n2nc(-c3ccc(Cl)cc3)c3c2-c2ccccc2S(=O)(=O)N3)cc1" .
Output: 29.8

Input: # query: inhibition of entry "O=[N+]([O-])c1ccc(-n2nc(-c3ccc(Cl)cc3)c3c2-c2ccccc2S(=O)(=O)N3)cc1"
Output: 76.9

Input: Quick one: inhibition for Cc1ccc(-c2cc(C(F)(F)F)nn2-c2ccc(S(N)(=O)=O)cc2)cc1 [CELECOXIB] ?
Output: 64.5

Input: Tell me the measured inhibition of "O=S1(=O)Nc2c(-c3ccc(Cl)cc3)nn(-c3ccc(F)cc3)c2-c2ccccc21" , please.
Output: 15.5

Input: Fill in: inhibition of "O=S1(=O)Nc2c(-c3ccc(Cl)cc3)nn(-c3cccc(F)c3)c2-c2ccccc21" is ___
Output: 33.9

Input: Item under review: "CS(=O)(=O)Nc1ccc(-n2nc(-c3ccc(Cl)cc3)c3c2-c2ccccc2S(=O)(=O)N3)cc1" . Reported inhibition?
Output: 19.2

====

Target: Quinolone resistance protein NorA (Staphylococcus aureus) (UniProt P0A0J7)
Sequence (whole entry): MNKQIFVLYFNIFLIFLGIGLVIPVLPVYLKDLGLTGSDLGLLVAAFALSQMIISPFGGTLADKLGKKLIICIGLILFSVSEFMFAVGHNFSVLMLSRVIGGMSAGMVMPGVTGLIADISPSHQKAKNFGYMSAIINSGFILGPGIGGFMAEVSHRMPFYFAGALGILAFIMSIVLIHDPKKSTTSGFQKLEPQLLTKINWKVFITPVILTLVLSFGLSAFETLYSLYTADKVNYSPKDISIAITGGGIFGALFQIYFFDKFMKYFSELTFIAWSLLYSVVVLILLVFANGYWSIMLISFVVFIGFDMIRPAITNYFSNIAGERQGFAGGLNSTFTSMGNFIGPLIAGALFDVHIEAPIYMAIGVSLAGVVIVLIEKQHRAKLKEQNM
Assay: Inhibition of norA overexpressed in Staphylococcus aureus SA1199B coexpressing A116E GrlA mutation assessed as potentiation of ciprofloxacin MIC by checkerboard assay
The source made the active and inactive calls. No cut-off for these calls is given here.
Outcomes you can answer with include only these: active, inactive

A selection of reference data follows.
[[record]]
smilesstring = "O=[N+]([O-])c1ccc(-n2nc(-c3ccc(Cl)cc3)c3c2-c2ccccc2S(=O)(=O)N3)cc1"
testsystem = "Quinolone resistance protein NorA (Staphylococcus aureus) (UniProt P0A0J7)"
assignedlabel = "active"

[[record]]
smilesstring = "Fc1ccc([C@@H]2CCNC[C@H]2COc2ccc3c(c2)OCO3)cc1"
testsystem = "Quinolone resistance protein NorA (Staphylococcus aureus) (UniProt P0A0J7)"
assignedlabel = "active"

[[record]]
smilesstring = "COC(=O)[C@H]1[C@H]2C[C@@H]3c4[nH]c5cc(OC)ccc5c4CCN3C[C@H]2C[C@@H](OC(=O)c2cc(OC)c(OC)c(OC)c2)[C@@H]1OC"
testsystem = "Quinolone resistance protein NorA (Staphylococcus aureus) (UniProt P0A0J7)"
assignedlabel = "active"


Now examine the next entry.
Input: // param item: "Cc1ccc(-c2cc(C(F)(F)F)nn2-c2ccc(S(N)(=O)=O)cc2)cc1" ; yields the recorded call
Output: inactive
